- measurement target: bacteriophage T4 DNA polymerase (Enterobacteria phage T4)
- Construct: made in house
- Sequence (P04415 1-898): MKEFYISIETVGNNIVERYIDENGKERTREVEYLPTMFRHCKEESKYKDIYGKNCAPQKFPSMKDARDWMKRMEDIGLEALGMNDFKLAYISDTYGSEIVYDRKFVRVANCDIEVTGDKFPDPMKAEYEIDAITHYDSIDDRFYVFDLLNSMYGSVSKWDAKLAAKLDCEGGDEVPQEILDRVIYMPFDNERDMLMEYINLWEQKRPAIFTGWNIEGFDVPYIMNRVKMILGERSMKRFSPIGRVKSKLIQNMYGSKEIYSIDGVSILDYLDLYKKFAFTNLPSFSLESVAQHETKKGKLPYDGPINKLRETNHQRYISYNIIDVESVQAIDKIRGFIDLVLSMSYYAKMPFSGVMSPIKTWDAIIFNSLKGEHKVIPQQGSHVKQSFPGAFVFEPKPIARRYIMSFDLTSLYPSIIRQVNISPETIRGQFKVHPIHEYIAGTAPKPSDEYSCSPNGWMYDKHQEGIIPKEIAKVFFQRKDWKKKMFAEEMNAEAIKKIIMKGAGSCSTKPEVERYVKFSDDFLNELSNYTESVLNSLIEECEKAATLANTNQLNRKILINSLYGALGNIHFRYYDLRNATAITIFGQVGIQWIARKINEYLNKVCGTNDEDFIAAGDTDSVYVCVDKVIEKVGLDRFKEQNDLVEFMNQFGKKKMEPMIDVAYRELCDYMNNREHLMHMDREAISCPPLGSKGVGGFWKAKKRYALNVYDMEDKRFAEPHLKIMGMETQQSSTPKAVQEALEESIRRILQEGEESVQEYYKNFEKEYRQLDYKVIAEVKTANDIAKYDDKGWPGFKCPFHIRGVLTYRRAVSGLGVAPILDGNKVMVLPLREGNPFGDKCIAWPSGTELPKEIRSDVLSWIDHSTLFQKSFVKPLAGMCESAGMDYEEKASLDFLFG
- test details: Counter-screen against bacteriophage T4 DNA polymerase
- Assay type: biochemical
- measurement parameters: DRC-2; read at 90'; concentration 20
experimental endpoint: % inhibition T4 90' 20 (%)
Your answer should be a plain number; it is taken to be in %.

Task: Indicate its recorded % inhibition T4 90' 20; the compound in question is COc1ccc(C2CC(c3ccc(Cl)cc3Cl)Nc3nc(N)nn32)cc1OC (stereo not drawn)
Output: -3

Task: Give the reported % inhibition T4 90' 20 for this compound. Cc1cc2[nH]c(C(=O)Nc3ccc(F)cc3)c(CN3CCOCC3)c2s1
Output: 19

Task: Determine from records and report % inhibition T4 90' 20 for COc1ccccc1CC(=O)N1CCc2c(nc3cc(-c4ccccc4Cl)[nH]n3c2=O)C1
Output: -41
